B1: FOXJ1 (parent)
chain: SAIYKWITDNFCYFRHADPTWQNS

Variants of: B1
METHOD_NOTES: protein stability index of a GFP-peptide fusion (GPS, HEK-293T) (PSI 1-6); higher = more stable;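 further: lentivirally expressed fusions sorted by FACS into six bins by GFP to DsRed ratio, PSI derived from sequencing read proportions per bin multiplied by bin number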
CONDITIONS_USED: c terminus: a fixed tail appended
Think of 3 as a floor: if protein stability index stands on it or above, it is yes (1); beneath it, no (0).

MUTATION_DESCRIPTOR | LABEL_VALUE
F14P | no (0)

Does the variant A2I have recorded protein stability index that is 3 or more? yes (1)

Does the variant P19D have recorded protein stability index that is 3 or more? no (0)

Does the variant D9P have recorded protein stability index that is 3 or more? no (0)

Does the variant F11H have recorded protein stability index that is 3 or more? no (0)

Does the variant N23F have recorded protein stability index that is 3 or more? yes (1)

Does the variant R15Y have recorded protein stability index that is 3 or more? no (0)
